System: GCaMP5-expressing T. gondii
Construct: whole extracellular parasites expressing GCaMP5 Ca2+ sensor
Parameters: species or system GCaMP5-expressing Toxoplasma gondii, extracellular; GCaMP5 fluorescence (cytosolic Ca2+) after 100 uM zaprinast in compound-pretreated extracellular parasites, background-subtracted, relative to zaprinast alone
Conditions: 100 uM zaprinast stimulation; 10 min pretreatment; mean of two replicates; 0.23 h
Provide the recorded fold change in fluorescence relative to zaprinast alone for the entries that follow.
Give bare numbers.

COc1ccc(-c2nc3n(c2-c2ccncc2)CCC3)cc1    0.9045

Batch of 3 compounds: report fold change in fluorescence relative to zaprinast alone for each.
1. Fc1ccc(-c2ncn(C3CCNCC3)c2-c2ccnc(Oc3ccc(F)c(F)c3)n2)cc1
2. CN(C)C(=O)O[C@H]1CN[C@H](C#Cc2cc3ncnc(Nc4ccc(OCc5cccc(F)c5)c(Cl)c4)c3s2)C1 [GSK182497A]
3. CNC(=O)c1cc(-c2ccc(F)cc2)cc(-c2ccc(S(=O)(=O)N3CCCC3)cc2)c1N [GSK635416A]

Output:
[1.173, 1.183, 1.111]
